Sequence of the target: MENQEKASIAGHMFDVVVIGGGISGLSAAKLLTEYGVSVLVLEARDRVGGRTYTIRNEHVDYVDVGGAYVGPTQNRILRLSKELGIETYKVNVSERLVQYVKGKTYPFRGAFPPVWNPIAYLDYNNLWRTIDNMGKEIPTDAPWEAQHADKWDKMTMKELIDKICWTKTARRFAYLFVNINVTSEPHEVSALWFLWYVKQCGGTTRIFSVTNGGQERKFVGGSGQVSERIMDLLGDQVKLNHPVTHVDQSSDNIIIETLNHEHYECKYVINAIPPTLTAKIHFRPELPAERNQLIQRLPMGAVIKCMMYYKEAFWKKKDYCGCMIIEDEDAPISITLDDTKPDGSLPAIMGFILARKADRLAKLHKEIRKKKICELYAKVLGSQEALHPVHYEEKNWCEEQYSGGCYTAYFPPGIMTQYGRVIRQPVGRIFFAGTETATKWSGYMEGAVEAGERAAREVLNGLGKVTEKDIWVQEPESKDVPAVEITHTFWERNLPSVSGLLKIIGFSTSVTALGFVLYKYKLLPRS
Hi there, I'd appreciate the recorded pIC50 for every entry that follows.
Numbers only, as −log10 of the molar value.

Use the examples below as a reference point.
1) N[C@]1(CCc2ccccc2)C[C@H]1c1ccccc1 (racemic)    7.67
2) N[C@]1(c2ccccc2)C[C@H]1c1ccccc1    6.63

We next turn to a different molecule, shown below.
Exercise: Item under review: N[C@@]1(c2ccccc2)C[C@H]1c1ccccc1 (relative stereo) . Reported pIC50?
Solution: 7.08

----------
- Tested on: Amine oxidase [flavin-containing] A (Homo sapiens)
pIC50: −log10 of the molar value.
Assign yes (1) to entries whose pIC50 meets or exceeds 6; assign no (0) to the rest.

Would you please look over these solved cases?
1) CCC[C@@]1(N)C[C@H]1c1ccccc1 (relative stereo)    yes (1)
2) N[C@@]1(Cc2ccccc2)C[C@@H]1c1ccccc1    no (0)
3) N[C@]1(Cc2ccccc2)C[C@@H]1c1ccccc1 (relative stereo)    no (0)
4) CC[C@@]1(N)C[C@H]1c1ccccc1    no (0)

Kindly review the next molecule as well.
Exercise: API: above_or_equal(metric=pIC50, cutoff=6) for item CC[C@@]1(N)C[C@@H]1c1ccccc1 (relative stereo)
Solution: no (0)

----------
- Tested on: Lysine-specific histone demethylase 1A (Homo sapiens, UniProt O60341)
- Assay notes: Inhibition of human recombinant KDM1A/CoREST expressed in Escherichia coli assessed as reduction in H2O2 release at 100 uM using synthetic mono-methylated H3-K4 peptide (21 amino acids) substrate by horseradish peroxidase coupled enzyme assay
Measure: inhibition
Hey, just the number and the unit after it is fine.

Use the examples below as a reference point.
1) N[C@@H]1C[C@@H]1Oc1ccccc1 (relative stereo)    0%
2) N[C@H]1C[C@@H]1Oc1ccccc1 (relative stereo)    0%
3) N[C@@]1(C(=O)O)C[C@H]1c1ccccc1 (relative stereo)    21%
4) NC[C@@H]1C[C@H]1c1ccccc1 (relative stereo)    0%

We next turn to a different compound, shown below.
Exercise: Item under review: CCOC(=O)[C@]1(N)C[C@H]1c1ccccc1 (relative stereo) . Reported inhibition?
Solution: 11%

----------
- Tested on: UniProt:P27338
- Sequence (P27338 whole entry): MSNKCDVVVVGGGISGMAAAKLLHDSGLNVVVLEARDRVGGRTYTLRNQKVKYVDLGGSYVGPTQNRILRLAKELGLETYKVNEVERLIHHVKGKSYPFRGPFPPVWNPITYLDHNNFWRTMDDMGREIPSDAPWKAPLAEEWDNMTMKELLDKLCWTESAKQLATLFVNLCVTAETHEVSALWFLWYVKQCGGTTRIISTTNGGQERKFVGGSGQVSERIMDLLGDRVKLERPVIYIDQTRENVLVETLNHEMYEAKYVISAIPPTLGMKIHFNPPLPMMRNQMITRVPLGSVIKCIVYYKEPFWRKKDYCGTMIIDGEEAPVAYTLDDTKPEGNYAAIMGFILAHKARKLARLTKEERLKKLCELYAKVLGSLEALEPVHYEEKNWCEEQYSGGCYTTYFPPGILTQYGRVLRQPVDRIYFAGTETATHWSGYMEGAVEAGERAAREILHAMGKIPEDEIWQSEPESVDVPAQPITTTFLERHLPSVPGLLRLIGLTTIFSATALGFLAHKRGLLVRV
Please respond with 1 (yes) when measured IC50 is strictly beneath 10 µM, and with 0 (no) in all other cases.

Would you please look over these solved cases?
1) CC[C@@]1(N)C[C@@H]1c1ccccc1 (relative stereo)    1 (yes)
2) N[C@@]1(Cc2ccccc2)C[C@@H]1c1ccccc1    0 (no)
3) CC[C@@]1(N)C[C@H]1c1ccccc1    0 (no)

Exercise: Threshold test, IC50 < 10 µM: CCC[C@@]1(N)C[C@H]1c1ccccc1 (relative stereo)
Solution: 1 (yes)

Exercise: Threshold test, IC50 < 10 µM: N[C@@]1(c2ccccc2)C[C@@H]1c1ccccc1
Solution: 0 (no)

Exercise: Threshold test, IC50 < 10 µM: CC[C@]1(N)C[C@@H]1c1ccccc1
Solution: 1 (yes)

Exercise: Threshold test, IC50 < 10 µM: N[C@@]1(c2ccccc2)C[C@H]1c1ccccc1 (relative stereo)
Solution: 0 (no)

----------
pIC50: −log10 of the molar value.
Lysine-specific histone demethylase 1A (Homo sapiens, UniProt O60341): reported pIC50 for various compounds.

Can you give me pIC50 for all of these, one by one?
1. N[C@@]1(C(=O)O)C[C@H]1c1ccccc1 (relative stereo)
2. CCOC(=O)[C@]1(N)C[C@H]1c1ccccc1 (relative stereo)

Solution:
< 4.00
< 4.00
